# study_target: T1, FX activation peptide 12-mer ATSSSGEAPDSI (human)
# T1 peptide: ATSSSGEAPDSI-biotin
# assay_explanation: peptide ELISA
Ends that are not written are not given here.
observed_property: ELISA signal relative to background
Simply state the number, no unit and no words.

Query :: Quick one: ELISA signal relative to background for Nb 730C03 (VHH, monovalent Nanobody; also called Nb 730003; not shown: C-terminal FLAG3 and HIS6 tag) VHH: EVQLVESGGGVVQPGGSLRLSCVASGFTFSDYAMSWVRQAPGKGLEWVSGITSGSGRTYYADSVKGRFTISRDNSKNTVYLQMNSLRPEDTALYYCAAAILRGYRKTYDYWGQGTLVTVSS ?
Result :: 1.19

Query :: Quick one: ELISA signal relative to background for Nb 702C12 (VHH, monovalent Nanobody; not shown: C-terminal FLAG3 and HIS6 tag) VHH: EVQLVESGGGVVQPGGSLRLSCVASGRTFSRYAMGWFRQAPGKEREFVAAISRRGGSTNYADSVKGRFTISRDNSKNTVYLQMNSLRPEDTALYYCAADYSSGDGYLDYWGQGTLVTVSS ?
Result :: 0.98
